# target or test system: BgNaV1 (Blattella germanica)
# Sequence (O01306 1-2031): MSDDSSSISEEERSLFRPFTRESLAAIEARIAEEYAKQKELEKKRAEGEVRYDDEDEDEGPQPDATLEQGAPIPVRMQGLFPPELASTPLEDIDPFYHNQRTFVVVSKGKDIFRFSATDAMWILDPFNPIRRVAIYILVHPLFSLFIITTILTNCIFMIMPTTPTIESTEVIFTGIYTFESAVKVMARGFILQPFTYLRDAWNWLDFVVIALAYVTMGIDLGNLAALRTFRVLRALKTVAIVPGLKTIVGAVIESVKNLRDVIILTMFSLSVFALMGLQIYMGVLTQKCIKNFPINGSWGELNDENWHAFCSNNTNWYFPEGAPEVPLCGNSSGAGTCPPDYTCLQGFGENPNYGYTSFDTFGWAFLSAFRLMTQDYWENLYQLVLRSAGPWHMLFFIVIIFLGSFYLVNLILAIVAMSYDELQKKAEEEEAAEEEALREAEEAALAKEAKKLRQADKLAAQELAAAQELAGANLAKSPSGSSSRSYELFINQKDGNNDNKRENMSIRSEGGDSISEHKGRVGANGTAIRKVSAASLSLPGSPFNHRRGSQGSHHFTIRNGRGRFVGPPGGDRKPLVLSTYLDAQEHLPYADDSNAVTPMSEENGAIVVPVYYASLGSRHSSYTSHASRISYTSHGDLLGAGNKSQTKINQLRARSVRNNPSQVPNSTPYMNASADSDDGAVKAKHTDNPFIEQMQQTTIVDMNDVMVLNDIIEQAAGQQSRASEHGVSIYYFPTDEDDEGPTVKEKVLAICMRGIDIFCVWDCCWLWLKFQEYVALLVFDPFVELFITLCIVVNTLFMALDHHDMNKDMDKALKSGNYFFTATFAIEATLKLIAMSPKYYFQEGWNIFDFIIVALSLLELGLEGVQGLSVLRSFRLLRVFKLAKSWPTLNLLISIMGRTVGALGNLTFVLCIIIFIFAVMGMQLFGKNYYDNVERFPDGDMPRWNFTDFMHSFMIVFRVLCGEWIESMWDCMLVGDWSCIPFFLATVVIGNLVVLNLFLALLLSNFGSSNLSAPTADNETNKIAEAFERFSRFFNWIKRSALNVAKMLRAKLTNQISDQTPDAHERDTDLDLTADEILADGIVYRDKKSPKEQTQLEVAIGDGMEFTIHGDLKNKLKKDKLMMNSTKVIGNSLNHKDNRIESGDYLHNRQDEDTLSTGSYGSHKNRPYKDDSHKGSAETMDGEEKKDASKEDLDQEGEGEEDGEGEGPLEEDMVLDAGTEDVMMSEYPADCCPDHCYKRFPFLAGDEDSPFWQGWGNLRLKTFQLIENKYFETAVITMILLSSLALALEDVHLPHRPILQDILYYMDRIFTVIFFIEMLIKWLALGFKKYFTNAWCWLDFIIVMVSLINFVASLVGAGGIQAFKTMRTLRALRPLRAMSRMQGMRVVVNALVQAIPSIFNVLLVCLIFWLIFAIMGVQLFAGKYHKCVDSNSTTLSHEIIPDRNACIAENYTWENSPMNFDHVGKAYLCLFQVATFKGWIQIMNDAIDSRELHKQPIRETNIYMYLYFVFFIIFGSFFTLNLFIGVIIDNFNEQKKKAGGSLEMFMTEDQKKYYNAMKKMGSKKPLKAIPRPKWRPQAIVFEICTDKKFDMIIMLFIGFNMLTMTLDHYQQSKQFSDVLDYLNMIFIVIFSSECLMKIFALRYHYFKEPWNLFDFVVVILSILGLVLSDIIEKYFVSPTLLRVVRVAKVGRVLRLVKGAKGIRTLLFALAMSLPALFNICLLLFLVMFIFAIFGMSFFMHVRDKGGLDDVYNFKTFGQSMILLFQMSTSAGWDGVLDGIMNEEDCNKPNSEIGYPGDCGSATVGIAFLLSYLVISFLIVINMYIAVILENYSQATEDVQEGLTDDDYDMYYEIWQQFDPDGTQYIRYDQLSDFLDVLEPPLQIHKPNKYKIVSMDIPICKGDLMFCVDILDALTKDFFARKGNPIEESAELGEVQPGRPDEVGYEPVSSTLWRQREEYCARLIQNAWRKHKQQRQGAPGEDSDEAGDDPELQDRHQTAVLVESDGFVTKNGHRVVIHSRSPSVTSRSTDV
# protocol text: Two-electrode voltage-clamp of BgNaV1 expressed in Xenopus laevis oocytes
# Format: cell-based, insect
# experimental setup: amplitude of toxin-induced effect at 30 ms (I30ms), Hill fit; Xenopus oocytes; means ± sem, n ≥ 5; read-out: half-maximal effective concentration (EC50), BgNaV1
Bridges are numbered along the chain shown (N, C = ends). Roman numbers before positions name the chains, in order. Where no end group is shown, it is not given here.
endpoint: EC50 (nM)
# unit: nM | format: bare number

// known answers, use as guide
# substance, target or test system, EC50 / nM
rows = [
    ("ASCKCDDDGPDVRSATFTGTVDFWNCNEGWEKCTAVYTPVASCCRKKK-NH2 (disulfide 3-43, 5-33, 26-44) [δ-SHTX-Hcr1f]", "BgNaV1 (Blattella germanica)", 226),
    ("H-GNCKCDDEGPYVRTAPLTGYVDLGYCNEGWEKCASYYSPIAECCRKKK-NH2 (disulfide 3-43, 5-33, 26-44) [RTX-III]", "BgNaV1 (Blattella germanica)", 978),
]

As a next step, examine the substance that follows.
Value lookup for EC50; key = I: TAPLTGYVDLGYCNEGWEKCASYYSPIAECCRKKK-NH2 / II: GNCKCDDEGPYV-OH (disulfide I:13-I:31, I:20-II:5, I:30-II:3) [RTX-VI]
761

###

# target or test system: rNaV1.2 (Rattus norvegicus, UniProt P04775)
# Construct: expressed in transfected cells; host or cells: Xenopus laevis oocytes injected with cRNA
# protocol text: Two-electrode voltage-clamp of NaV1.2 expressed in Xenopus laevis oocytes
# Type: cell-based
# experimental setup: amplitude of toxin-induced effect at 30 ms (I30ms), Hill fit; Xenopus oocytes; means ± sem, n ≥ 5; read-out: half-maximal effective concentration (EC50), NaV1.2
Bridges are numbered along the chain shown (N, C = ends). Roman numbers before positions name the chains, in order. Where no end group is shown, it is not given here.
endpoint: EC50

# substance, endpoint, data value
measured = [
    ("I: TAPLTGYVDLGYCNEGWEKCASYYSPIAECCRKKK-NH2 / II: GNCKCDDEGPYV-OH (disulfide I:13-I:31, I:20-II:5, I:30-II:3) [RTX-VI]", "EC50", "121 nM"),
]

As a next step, examine the substance that follows.
Value lookup for EC50; key = ASCKCDDDGPDVRSATFTGTVDFWNCNEGWEKCTAVYTPVASCCRKKK-NH2 (disulfide 3-43, 5-33, 26-44) [δ-SHTX-Hcr1f]
79.5 nM

###

Overview of reported pEC50 across a group of substances:
# target or test system: mNaV1.6 (Mus musculus, UniProt Q9WTU3)
# Construct: expressed in transfected cells; host or cells: Xenopus laevis oocytes injected with cRNA
# Sequence (Q9WTU3 whole entry): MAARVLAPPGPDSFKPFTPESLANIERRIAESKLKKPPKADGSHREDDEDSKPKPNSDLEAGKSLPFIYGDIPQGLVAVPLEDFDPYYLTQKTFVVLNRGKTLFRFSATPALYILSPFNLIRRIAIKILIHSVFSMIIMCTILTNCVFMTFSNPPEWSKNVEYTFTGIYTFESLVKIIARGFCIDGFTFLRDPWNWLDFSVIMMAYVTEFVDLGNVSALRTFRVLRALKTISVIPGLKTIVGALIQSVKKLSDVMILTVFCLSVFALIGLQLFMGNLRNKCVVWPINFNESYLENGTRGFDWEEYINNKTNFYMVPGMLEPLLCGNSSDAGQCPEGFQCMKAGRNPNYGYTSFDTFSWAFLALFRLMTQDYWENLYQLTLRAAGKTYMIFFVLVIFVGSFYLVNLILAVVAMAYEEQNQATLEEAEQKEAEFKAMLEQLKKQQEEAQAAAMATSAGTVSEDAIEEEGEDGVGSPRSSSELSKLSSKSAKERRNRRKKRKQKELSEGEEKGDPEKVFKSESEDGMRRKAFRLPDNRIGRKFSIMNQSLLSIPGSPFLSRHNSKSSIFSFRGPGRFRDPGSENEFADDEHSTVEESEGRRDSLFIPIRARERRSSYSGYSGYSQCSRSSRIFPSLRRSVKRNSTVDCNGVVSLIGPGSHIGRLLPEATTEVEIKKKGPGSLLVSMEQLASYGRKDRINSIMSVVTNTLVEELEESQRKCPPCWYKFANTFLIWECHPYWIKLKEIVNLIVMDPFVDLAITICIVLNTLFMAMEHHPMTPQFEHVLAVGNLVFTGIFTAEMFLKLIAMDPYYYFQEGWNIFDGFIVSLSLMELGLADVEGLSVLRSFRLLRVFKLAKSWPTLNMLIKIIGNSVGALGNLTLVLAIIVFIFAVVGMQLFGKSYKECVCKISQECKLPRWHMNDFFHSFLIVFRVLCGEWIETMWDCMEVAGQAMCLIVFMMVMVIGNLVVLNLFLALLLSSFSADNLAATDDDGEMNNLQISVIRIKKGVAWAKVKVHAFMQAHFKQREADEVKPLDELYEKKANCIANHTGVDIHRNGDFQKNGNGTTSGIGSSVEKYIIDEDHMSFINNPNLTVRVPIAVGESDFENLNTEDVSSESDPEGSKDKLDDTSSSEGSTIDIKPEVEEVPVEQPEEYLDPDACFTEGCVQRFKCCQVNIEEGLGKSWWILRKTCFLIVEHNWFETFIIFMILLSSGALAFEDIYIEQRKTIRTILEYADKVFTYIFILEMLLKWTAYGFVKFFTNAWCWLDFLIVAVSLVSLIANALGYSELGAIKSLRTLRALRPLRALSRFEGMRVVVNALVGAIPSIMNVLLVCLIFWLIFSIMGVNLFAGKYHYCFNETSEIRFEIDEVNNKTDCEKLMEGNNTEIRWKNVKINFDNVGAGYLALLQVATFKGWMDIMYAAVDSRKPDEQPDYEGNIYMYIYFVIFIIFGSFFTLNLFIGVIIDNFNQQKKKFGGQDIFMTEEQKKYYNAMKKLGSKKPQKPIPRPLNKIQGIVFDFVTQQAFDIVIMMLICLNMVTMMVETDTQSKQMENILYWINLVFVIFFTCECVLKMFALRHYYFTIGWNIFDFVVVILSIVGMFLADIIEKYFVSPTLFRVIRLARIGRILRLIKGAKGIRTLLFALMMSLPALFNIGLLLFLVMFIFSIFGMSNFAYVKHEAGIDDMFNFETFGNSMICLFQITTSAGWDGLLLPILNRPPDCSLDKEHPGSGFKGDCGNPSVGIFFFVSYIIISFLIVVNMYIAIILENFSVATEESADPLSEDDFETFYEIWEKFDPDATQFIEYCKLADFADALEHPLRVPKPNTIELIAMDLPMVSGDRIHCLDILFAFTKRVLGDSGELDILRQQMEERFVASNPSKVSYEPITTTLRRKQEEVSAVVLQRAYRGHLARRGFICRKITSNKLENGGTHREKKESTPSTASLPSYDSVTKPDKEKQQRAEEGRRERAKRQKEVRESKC
# protocol text: Two-electrode voltage-clamp of NaV1.6 expressed in Xenopus laevis oocytes
# Assay type: cell-based
# experimental setup: amplitude of toxin-induced effect at 30 ms (I30ms), Hill fit; Xenopus oocytes; means ± sem, n ≥ 5; read-out: half-maximal effective concentration (EC50), NaV1.6
Bridges are numbered along the chain shown (N, C = ends). Roman numbers before positions name the chains, in order. Where no end group is shown, it is not given here.
Expect pEC50 as a plain number equal to -log10 of the molar concentration.

# substance, target or test system, data value
data = [
    ("I: TAPLTGYVDLGYCNEGWEKCASYYSPIAECCRKKK-NH2 / II: GNCKCDDEGPYV-OH (disulfide I:13-I:31, I:20-II:5, I:30-II:3) [RTX-VI]", "mNaV1.6 (Mus musculus, UniProt Q9WTU3)", 6.55),
    ("H-GNCKCDDEGPYVRTAPLTGYVDLGYCNEGWEKCASYYSPIAECCRKKK-NH2 (disulfide 3-43, 5-33, 26-44) [RTX-III]", "mNaV1.6 (Mus musculus, UniProt Q9WTU3)", 6.42),
]

As a next step, examine the substance that follows.
Value lookup for pEC50; key = ASCKCDDDGPDVRSATFTGTVDFWNCNEGWEKCTAVYTPVASCCRKKK-NH2 (disulfide 3-43, 5-33, 26-44) [δ-SHTX-Hcr1f]
6.74
